Collected total protein half-life in vivo values appear next to each entry.
Test: total protein half-life in vivo (active degradation + dilution); higher = more stable protein
Conditions: E. coli NCM3722 delta-clpP; growth: N-lim chemostat; doubling time 6 h
recorded endpoint: total protein half-life in vivo

[
  {
    "sequence": "MTTRVIALDLDGTLLTPKKTLLPSSIEALARAREAGYQLIIVTGRHHVAIHPFYQALALDTPAICCNGTYLYDYHAKTVLEADPMPVIKALQLIEMLNEHHIHGLMYVDDAMVYEHPTGHVIRTSNWAQTLPPEQRPTFTQVASLAETAQQVNAVWKFALTHDDLPQLQHFGKHVEHELGLECEWSWHDQVDIARGGNSKGKRLTKWVEAQGWSMENVVAFGDNFNDISMLEAAGTGVAMGNADDAVKARANIVIGDNTTDSIAQFIYSHLI",
    "result": "0.903 h"
  },
  {
    "sequence": "MSEKSIVQEARDIQLAMELITLGARLQMLESETQLSRGRLIKLYKELRGSPPPKGMLPFSTDWFMTWEQNVHASMFCNAWQFLLKTGLCNGVDAVIKAYRLYLEQCPQAEEGPLLALTRAWTLVRFVESGLLQLSSCNCCGGNFITHAHQPVGSFACSLCQPPSRAVKRRKLSQNPADIIPQLLDEQRVQAV [P0ABY7]",
    "result": "4.44 h"
  },
  {
    "sequence": "MSHRDTLFSAPIARLGDWTFDERVAEVFPDMIQRSVPGYSNIISMIGMLAERFVQPGTQVYDLGCSLGAATLSVRRNIHHDNCKIIAIDNSPAMIERCRRHIDAYKAPTPVDVIEGDIRDIAIENASMVVLNFTLQFLEPSERQALLDKIYQGLNPGGALVLSEKFSFEDAKVGELLFNMHHDFKRANGYSELEISQKRSMLENVMLTDSVETHKARLHNAGFEHSELWFQCFNFGSLVALKAEDAA",
    "result": "4.27 h"
  },
  {
    "sequence": "MKKTAAIISACMLTFALSACSGSNYVMHTNDGRTIVSDGKPQTDNDTGMISYKDANGNKQQINRTDVKEMVELDQ",
    "result": "5.11 h"
  },
  {
    "sequence": "MKKVAIVGLGWLGMPLAMSLSARGWQVTGSKTTQDGVEAARMSGIDSYLLRMEPELVCDSDDLDALMDADALVITLPARRSGPGDEFYLQAVQELVDSALAHRIPRIIFTSSTSVYGDAQGTVKETTPRNPVTNSGRVLEELEDWLHNLPGTSVDILRLAGLVGPGRHPGRFFAGKTAPDGEHGVNLVHLEDVIGAITLLLQAPKGGHIYNICAPAHPARNVFYPQMARLLGLEPPQFRNSLDSGKGKIIDGSRICNELGFEYQYPDPLVMPLE [P0AD12]",
    "result": "4.52 h"
  },
  {
    "sequence": "MNLSTKQKQHLKGLAHPLKPVVLLGSNGLTEGVLAEIEQALEHHELIKVKIATEDRETKTLIVEAIVRETGACNVQVIGKTLVLYRPTKERKISLPR [P0AGK4]",
    "result": "5.91 h"
  },
  {
    "sequence": "MVTFHTNHGDIVIKTFDDKAPETVKNFLDYCREGFYNNTIFHRVINGFMIQGGGFEPGMKQKATKEPIKNEANNGLKNTRGTLAMARTQAPHSATAQFFINVVDNDFLNFSGESLQGWGYCVFAEVVDGMDVVDKIKGVATGRSGMHQDVPKEDVIIESVTVSE",
    "result": "4.38 h"
  }
]
